# Test system: Escherichia coli
# details: Concentration 32 ug.mL-1;; ASSAY_TEST Inhibition of Bacterial Growth; detection method Absorption (OD600); MEDIA CAMHB; plate type 384well; NBS; CORNING #3640; time 18 hr
# Description: Antibacterial activity against Escherichia coli ATCC 25922 (CO-ADD:GN_001); MIC in CAMBH media using NBS plates, by OD(600)
Measured potencies and affinities stand elsewhere.
readout_type: Inhibition
Report as: number unit

Problem: # Inhibition lookup, item O=C(Cn1nc2c(SC3CCCCC3)nccn2c1=O)N1CCN(c2ccccc2)CC1
Result: 0.18%

Problem: # Inhibition lookup, item Cc1ccccc1Cn1nc2c(=O)n(-c3cccc(Cl)c3C)ccn2c1=O
Result: -10.57%

Problem: # Inhibition lookup, item Cc1cccc(NC(=O)CSc2nnc3ccc(C(=O)Nc4cccc(F)c4)cn23)c1
Result: -1.74%

Problem: # Inhibition lookup, item COc1cccc(CN(c2ccc(F)cc2)S(=O)(=O)c2cccn3cnnc23)c1
Result: -3.63%

Problem: # Inhibition lookup, item CC(=O)c1ccc(NC(=O)Cn2nc3ccc(-c4ccc(C)c(C)c4)nn3c2=O)cc1
Result: -4.24%

Problem: # Inhibition lookup, item COc1ccc(NC(=O)Cn2nc3ccc(-c4ccccc4)nn3c2=O)cc1
Result: -0.4%
